test: Pharmacokinetic studies in mice (plasma, brain); type: in vivo; conditions: male, CD-1, mouse, 25 mg/kg; brain, oral, mice; read-out: t½ (converted)
quantity: half-life
Lab note: write values as number then unit, every time.

[Q] What half-life value was documented for this compound, O=C(Nc1ccc2c(c1)B(O)OC2)c1ccc(F)cc1C(F)(F)F [E19] ?
[A] 2.3 h

###

assay: Pharmacokinetic studies in mice (plasma, brain); format: in vivo; details: male, CD-1, mouse, 25 mg/kg; plasma, oral, mice; read-out: Oral Clearance Cl/F (converted)
quantity: CL/F (mL/min/kg)
# output: bare number, implied unit mL/min/kg

[Q] Looking for the measured CL/F of "CC1(C)OB(O)c2cc(NC(=O)c3ccc(F)cc3C(F)(F)F)ccc21" , can you help?
[A] 3.27

Now consider the entry below.
[Q] What value of CL/F has been reported for the following compound? "O=C(Nc1ccc2c(c1)B(O)OC2)c1ccc(F)cc1C(F)(F)F"
[A] 3.83

###

assay: Pharmacokinetic studies in mice (plasma, brain); format: in vivo; conditions: male, CD-1, mouse; brain, oral, mice, normalized to 25 mg/kg; read-out: Exposure/trapezoid AUC0-18
Below, each entry is listed alongside its reported AUC(0-t).
Kindly answer with a numeric value in ng·h/mL, unit omitted.

[Q] Please look up its AUC(0-t): O=C(Nc1ccc2c(c1)B(O)OC2)c1ccc(F)cc1C(F)(F)F [E19]
[A] 13100

Continue with the molecule presented below.
[Q] Recorded AUC(0-t) of CC1(C)OB(O)c2cc(NC(=O)c3ccc(F)cc3C(F)(F)F)ccc21 [compound 82] , please.
[A] 64900

###

As shown below, each of these compounds has a reported half-life value.
experiment: Pharmacokinetic studies in rats (plasma, brain, CSF); assay type: in vivo; details: male, Sprague Dawley, rat, 25 mg/kg; plasma, oral, rats; read-out: t½ (converted)
Write the number in h without appending the unit.

[Q] For the compound shown here, "CC1(C)OB(O)c2cc(NC(=O)c3ccc(F)cc3C(F)(F)F)ccc21" , give the reported half-life.
[A] 15.5

Here's the next entry for you.
[Q] Looking for the measured half-life of "O=C(Nc1ccc2c(c1)B(O)OC2)c1ccc(F)cc1C(F)(F)F" , can you help?
[A] 8.1

###

assay: Pharmacokinetic studies in mice (plasma, brain); format: in vivo; settings: male, CD-1, mouse, 25 mg/kg; plasma, oral, mice; read-out: t½ (converted)
Each entry below carries its recorded half-life.
Give just the number in h; leave the unit off.

[Q] half-life for "O=C(Nc1ccc2c(c1)B(O)OC2)c1ccc(F)cc1C(F)(F)F" ?
[A] 17.1

Others:
[Q] Request the reported half-life associated with "CC1(C)OB(O)c2cc(NC(=O)c3ccc(F)cc3C(F)(F)F)ccc21"
[A] 6.9

###

Quick reference for AUC(0-inf) among some compounds
assay: Pharmacokinetic studies in mice (plasma, brain); type: in vivo; conditions: male, CD-1, mouse, 8 mg/kg; plasma, oral, mice, normalized to 25 mg/kg (Table 3a); read-out: Exposure/trapezoid AUC0-inf
Give the quantity in ng·h/mL, number only.

[Q] Give its AUC(0-inf) value. Item: "O=C(Nc1ccc2c(c1)B(O)OC2)c1ccc(F)cc1Cl"
[A] 15200

More entries:
[Q] Quick one: AUC(0-inf) for "CC1(C)OB(O)c2cc(NC(=O)c3ccc(F)cc3Cl)ccc21" ?
[A] 58000
